test system: HeLa; test: Cell cycle arrest in human HeLa cells assessed as accumulation at G2/M phase phase at 10 uM after 24 hrs using ethidium bromide staining by flow cytometry analysis relative to control; type: functional; conditions: in the assay text read “propidium iodide staining” for “ethidium bromide staining”
Measure: Activity (%)
Record the value in %, omitting the unit from your answer.

Completed entries (count: 3):
Nc1nc(-c2cccs2)cc2ccccc12	41.79
Cc1ccc2c(N3CCNCC3)nc(-c3cccs3)cc2c1.Cl	0.58
CCN1CCN(c2nc(-c3cccs3)cc3cc(C)ccc23)CC1	18.01

Below: the item to evaluate.
Lookup: // Activity lookup, key: Cl.Nc1nc(-c2cccs2)cc2ccccc12
Found: 13.67
